Hey, just so you know, these numbers are from patent US12338203B2.

Biological target: human LPAR1 (Homo sapiens, UniProt Q92633)
Construct: expressed in transfected cells
Sequence (Q92633 whole entry): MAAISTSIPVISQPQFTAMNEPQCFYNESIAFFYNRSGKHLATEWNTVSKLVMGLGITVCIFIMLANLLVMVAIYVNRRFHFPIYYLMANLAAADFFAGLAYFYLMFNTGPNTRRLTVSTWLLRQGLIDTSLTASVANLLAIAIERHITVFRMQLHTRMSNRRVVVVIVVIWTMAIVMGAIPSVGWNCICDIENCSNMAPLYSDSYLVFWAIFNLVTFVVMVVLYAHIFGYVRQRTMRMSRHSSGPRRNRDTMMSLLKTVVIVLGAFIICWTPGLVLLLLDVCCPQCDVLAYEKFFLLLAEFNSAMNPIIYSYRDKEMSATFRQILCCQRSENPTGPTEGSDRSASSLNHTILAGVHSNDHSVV
Assay: Test Example 1: antagonism against response of LPA-induced increase in intracellular Ca2+ concentration in RH7777 cells stably expressing human LPAR1
Assay type: cell-based
Conditions: RH7777 cells stably expressing human LPAR1; Fluo-4 fluorescence, FDSS6000; read-out: IC50 value (concentration producing 50% antagonism against response of LPA-induced increase in intracellular Ca2+ concentration) (converted)
experimental.endpoint: IC50 (nM)

Solved entries (count: 3):
{"compound": "CCOc1cc(C(C)N(CCCCc2ccccc2)C(=O)N[C@]2(C(=O)O)C[C@@H](OC)C2)c(C)c(OCC)c1C(C)=O (stereo partly shown) [Example 5-198]", "units.text": "nM", "result.number": 2.9}
{"compound": "CCOc1cc([C@@H](C)N(CCCCc2ccccc2)C(=O)NC2CCCC2C(=O)O)cc(OCC)c1C(C)=O (stereo partly shown) [Example 1-135]", "units.text": "nM", "result.number": 2.17}
{"compound": "CCOc1cc(C(C)N(CCOCc2ccccc2)C(=O)NC2(C(=O)O)CCOCC2)cc(OCC)c1C1CC1 (stereo not shown) [Example 5-224]", "units.text": "nM", "result.number": 0.949}

(a) CCOc1cc(C(C)N(CCCC(F)(F)c2ccccc2)C(=O)NC2(C(=O)O)CC2)cc(OCC)c1C(C)O (stereo not shown) [Example 4-48]
(b) CCOc1cc([C@@H](C)N(CCO[C@@H](C)c2ccccc2)C(=O)N[C@]2(C(=O)O)C[C@@H](OCC)C2)cc(OCC)c1C(C)O (stereo partly shown) [Example 4-135]
(c) COc1cc(C(C)N(CCCn2cc(C)cn2)C(=O)NC2(C(=O)O)CC(F)(F)C2)cc(OC)c1C (stereo not shown) [Example 4-26]
query: # rank_down: sort by IC50, max first Reply: labels, ordered per the request.
result: c, b, a
(c: 1830 nM, b: 5.33 nM, a: 2.55 nM)
